This collection of values is drawn from ChEMBL document CHEMBL5543097.

Here, each record is paired with measured MIC data.
Tested on: Streptococcus pyogenes
assay details: Antibacterial activity against erythromycin-resistant Streptococcus pyogenes ATCC 19615 assessed as inhibition of visible bacterial growth incubated for 18 hrs by broth microdilution method
Format: functional

Below: 3 compounds and their reported MIC.
- compound: "CC[C@H]1OC(=O)[C@H](C)[C@@H](O[C@H]2C[C@@](C)(OC)[C@@H](O)[C@H](C)O2)[C@H](C)[C@@H](O[C@@H]2O[C@H](C)C[C@H](N(C)C)[C@H]2O)[C@](C)(O)C[C@@H](C)C(=O)[C@H](C)[C@@H](O)[C@]1(C)O [ERYTHROMYCIN]"
  target: "Streptococcus pyogenes"
  MIC: "< 0.03 µg/mL"
- compound: "CC[C@H]1OC(=O)[C@@](C)(F)C(=O)[C@H](C)[C@@H](O[C@@H]2O[C@H](C)C[C@H](N(C)C)[C@H]2O)[C@](C)(OC)C[C@@H](C)C(=O)[C@H](C)[C@H]2N(CCCOC(=O)Nc3ccccc3[N+](=O)[O-])C(=O)O[C@]12C"
  target: "Streptococcus pyogenes"
  MIC: "< 0.03 µg/mL"
- compound: "CC[C@H]1OC(=O)[C@@](C)(F)C(=O)[C@H](C)[C@@H](O[C@@H]2O[C@H](C)C[C@H](N(C)C)[C@H]2O)[C@](C)(OC)C[C@@H](C)C(=O)[C@H](C)[C@H]2N(CCCOC(=O)Nc3ccc(C(C)C)cc3)C(=O)O[C@]12C"
  target: "Streptococcus pyogenes"
  MIC: "< 0.03 µg/mL"

API: the following record is the query input.
Fill blank: measured MIC of the compound CC[C@H]1OC(=O)[C@@](C)(F)C(=O)[C@H](C)[C@@H](O[C@@H]2O[C@H](C)C[C@H](N(C)C)[C@H]2O)[C@](C)(OC)C[C@@H](C)C(=O)[C@H](C)[C@H]2N(CCCOC(=O)Nc3cccc(F)c3C)C(=O)O[C@]12C is ____.
< 0.03 µg/mL

* * *

Tested on: Moraxella catarrhalis
assay details: Antibacterial activity against Moraxella catarrhalis BCA 19-6 assessed as inhibition of bacterial growth incubated for 24 hrs by CLSI based broth microdilution method
Type: functional
test context: Moraxella catarrhalis, BCA 19-6, 24 h, read-out: MIC
readout label: MIC (µg/mL)
Supply the numeric figure in µg/mL, leaving out any unit text.

# count of solved cases: 2
- structure: "CC[C@H]1OC(=O)[C@@](C)(F)C(=O)[C@H](C)[C@@H](O[C@@H]2O[C@H](C)C[C@H](N(C)C)[C@H]2O)[C@](C)(OC)C[C@@H](C)C(=O)[C@H](C)[C@H]2N(CCCOC(=O)Nc3cccnc3)C(=O)O[C@]12C"
  endpoint value: 0.06
- structure: "CC[C@H]1OC(=O)[C@@](C)(F)C(=O)[C@H](C)[C@@H](O[C@@H]2O[C@H](C)C[C@H](N(C)C)[C@H]2O)[C@](C)(OC)C[C@@H](C)C(=O)[C@H](C)[C@H]2N(CCCOC(=O)Nc3cc(C)oc3C(F)(F)F)C(=O)O[C@]12C"
  endpoint value: 0.5

Okay, now this compound:
Short answer please: MIC, Moraxella catarrhalis, entry CC[C@H]1OC(=O)[C@@](C)(F)C(=O)[C@H](C)[C@@H](O[C@@H]2O[C@H](C)C[C@H](N(C)C)[C@H]2O)[C@](C)(OC)C[C@@H](C)C(=O)[C@H](C)[C@H]2N(CCCOC(=O)Nc3cc(C)ccc3C)C(=O)O[C@]12C
0.125
